# maps each entry to its pEC50
Target: T1, CRH (CT-Biotin) (human and mouse (same sequence), biotin on an added C-terminal K (CRH-K-Biotin))
T1 construct: also called Peptide 4 (CRH-Biotin)
T1 peptide: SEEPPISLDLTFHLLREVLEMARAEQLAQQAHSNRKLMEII
Experiment: ELISA, biotinylated CRH on streptavidin plate
# log scale: pEC50 equals minus log10 of the concentration in mol/L

Task: // lookup pEC50 for PR302038 (antibody, human IgG1, kappa, V domains shown, humanized variant of PR301777) VH: EMQLVESGGGLVQPGGSLRLSCAASGFTFSNYWMNWVRQAPGKGLEWVAEIRLKSNNYATHYAESVKGRFTISRDDSKSSVYLQMNSLKTEDTAVYYCTVGTLVYWGQGTLVTVSS VL: EIVLTQSPATLSLSPGERATLSCRASQSVSTSTYNYMHWFQQKPGQAPRLLIKFASNLESGIPARFSGSGSGTDFTLTISSLEPEDTAVYYCQHSWEIPYTFGQGTKLEIKR
Output: 10.40

Task: Field request: pEC50 | item: PR302066 (antibody, human IgG1, kappa, V domains shown, humanized variant of PR301777) VH: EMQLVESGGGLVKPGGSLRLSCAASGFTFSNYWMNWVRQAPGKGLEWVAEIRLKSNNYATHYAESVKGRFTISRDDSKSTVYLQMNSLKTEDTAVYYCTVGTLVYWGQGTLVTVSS VL: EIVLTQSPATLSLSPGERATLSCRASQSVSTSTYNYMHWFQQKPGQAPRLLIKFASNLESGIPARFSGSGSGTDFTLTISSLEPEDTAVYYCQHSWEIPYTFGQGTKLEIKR
Output: 10.72

Task: Any idea what pEC50 was measured for PR302029 (antibody, human IgG1, kappa, V domains shown, humanized variant of PR301777) VH: EVQLVESGGGLVQPGGSLRLSCAASGFTFSNYWMNWVRQAPGKGLEWVGEIRLKSNNYATHYAESVKGRFTISRDDSKNSLYLQMNSLKTEDTAVYYCTVGTLVYWGQGTLVTVSS VL: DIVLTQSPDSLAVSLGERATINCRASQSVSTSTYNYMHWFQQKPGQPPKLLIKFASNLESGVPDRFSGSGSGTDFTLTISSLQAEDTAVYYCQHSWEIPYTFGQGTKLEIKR ?
Output: 10.57

Task: I would be grateful if you could share the reported pEC50 for PR302055 (antibody, human IgG1, kappa, V domains shown, humanized variant of PR301777) VH: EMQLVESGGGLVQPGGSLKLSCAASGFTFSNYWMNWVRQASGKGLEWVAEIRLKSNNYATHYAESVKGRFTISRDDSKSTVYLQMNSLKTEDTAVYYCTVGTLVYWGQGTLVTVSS VL: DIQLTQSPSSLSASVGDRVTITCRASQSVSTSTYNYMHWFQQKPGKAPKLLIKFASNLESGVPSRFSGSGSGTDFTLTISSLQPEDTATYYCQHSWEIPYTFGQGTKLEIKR .
Output: 10.89

Task: GET /values?readout=pEC50&item= PR004290 (antibody, human IgG1, kappa, V domains shown, Series 1; human IgG1 wildtype Fc; also called Hybridoma Clone 28b3) VH: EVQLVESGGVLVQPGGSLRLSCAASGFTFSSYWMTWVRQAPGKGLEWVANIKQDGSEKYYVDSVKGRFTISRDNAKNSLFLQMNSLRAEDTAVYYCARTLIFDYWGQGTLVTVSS VL: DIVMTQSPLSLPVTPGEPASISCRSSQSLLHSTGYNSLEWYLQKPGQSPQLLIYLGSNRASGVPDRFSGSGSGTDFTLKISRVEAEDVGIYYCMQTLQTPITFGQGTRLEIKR
Output: 10.15

Task: Look at this binder and give its reported pEC50. PR302036 (antibody, human IgG1, kappa, V domains shown, humanized variant of PR301777) VH: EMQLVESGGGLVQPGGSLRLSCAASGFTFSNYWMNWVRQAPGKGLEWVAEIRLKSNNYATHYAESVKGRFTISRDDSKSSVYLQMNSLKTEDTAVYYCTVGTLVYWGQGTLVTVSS VL: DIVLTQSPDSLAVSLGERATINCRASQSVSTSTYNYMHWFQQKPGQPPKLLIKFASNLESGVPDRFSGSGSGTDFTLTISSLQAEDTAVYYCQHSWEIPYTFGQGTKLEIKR
Output: 10.48

Task: // returns reported pEC50 for input PR302041 (antibody, human IgG1, kappa, V domains shown, humanized variant of PR301777) VH: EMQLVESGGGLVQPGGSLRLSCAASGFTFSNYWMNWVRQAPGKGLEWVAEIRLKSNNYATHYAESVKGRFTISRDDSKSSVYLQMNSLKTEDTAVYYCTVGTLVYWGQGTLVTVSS VL: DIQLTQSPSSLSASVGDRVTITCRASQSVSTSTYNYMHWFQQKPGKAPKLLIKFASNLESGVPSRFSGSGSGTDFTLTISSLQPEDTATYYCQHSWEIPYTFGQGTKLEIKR
Output: 10.46
